- Test system: CP325
- assay details: qHTS profiling for inhibitors of Plasmodium falciparum proliferation (AID 504749); also: nearly all actives have a fitted effect of over 60% in size
- measurement parameters: P. falciparum in erythrocytes, SYBR Green DNA, 72 h; series mostly up to 28.7 µM
Records with an inconclusive call do not appear. Activity calls are given as the source filed them. Calls follow the shape of the dose curve; as a rule, active = well fitted inhibition curve with a large enough effect; inconclusive = small, poorly fitted or top-dose-only effect; inactive = flat fitted curve, though single readings scatter.
Your answer must be one of the following: Yes (active), No (inactive)

COc1ccc(C(=O)/C(Br)=C/C(=O)O)cc1 :: No
C[C@@H]1CCN(C(=O)[C@H](CCCNC(=N)N)NS(=O)(=O)c2cccc3c2NC[C@H](C)C3)[C@@H](C(=O)O)C1 :: No
C=CC1CN2CCC1CC2[C@@H](O)c1ccnc2ccc(OC)cc12 (stereo partly specified) :: Yes
C=C(NCc1ccccc1)c1ccccc1O :: No
C[S+](C)CC[C@H](N)C(=O)O :: No
NC(=O)OC[C@@H]1[C@H](NC(=O)/C(=N/OCC(=O)O)c2csc(N)n2)C(=O)N1S(=O)(=O)O :: No
CC(=O)N1CC(O)CC1C(=O)O (stereo unspecified) :: No
CC1OC(OCC2OC(Oc3c(-c4ccc(OCCO)c(OCCO)c4)oc4cc(OCCO)cc(O)c4c3=O)C(O)C(O)C2O)[C@@H](O)C(O)C1O (stereo partly specified) :: No

Prompt: Short answer needed: outcome of this test for CC1CCC(C(C)C)C(O)C1 (stereo unspecified) ?
Response: No

Prompt: Short answer needed: outcome of this test for `O=C1C(I)=CC(=C(c2cc(I)c(O)c(I)c2)c2ccccc2C(=O)O)C=C1I` ?
Response: No

Prompt: Short answer needed: outcome of this test for O=C1Oc2ccccc2C(=O)C1C(CC(O)c1ccc(-c2ccc(Br)cc2)cc1)c1ccccc1 (stereo unspecified) ?
Response: No

----------
- Test system: CP268
- assay details: qHTS profiling for inhibitors of Plasmodium falciparum proliferation (AID 504749); also: nearly all actives have a fitted effect of over 60% in size
- measurement parameters: P. falciparum in erythrocytes, SYBR Green DNA, 72 h; series mostly up to 28.7 µM
Inconclusive results are not listed. Activity calls are given as the source filed them. The call rests on the fitted dose curve; in most records, active means well fitted inhibition curve with a large enough effect; inconclusive means small, poorly fitted or top-dose-only effect; inactive means flat fitted curve, though single readings scatter.
Your answer must be one of the following: active, inactive

Here are 10 compounds together with their reported answers.
CC1CCC(O)C/C1=C\C=C1/CCCC2(C)C1CCC2C(C)/C=C/C(C)C(C)C (configuration not stated) :: inactive
CC1(C)OC[C@@H]2O[C@@]3(C(=O)O)OC(C)(C)O[C@@H]3[C@@H]2O1 :: inactive
Nc1ncn(C2C[C@H](O)[C@@H](CO)O2)c(=O)n1 (some centres not stated) :: inactive
CCCCC(=O)OCC(=O)[C@]1(O)Cc2c(O)c3c(c(O)c2[C@H](OC2CC(NC(=O)C(F)(F)F)C(O)C(C)O2)C1)C(=O)c1c(OC)cccc1C3=O (some centres not stated) :: active
NCCCCC(N)C(=O)O (configuration not stated) :: inactive
C=C[C@H]1CN2CCC1C[C@H]2[C@H](O)c1ccnc2ccc(OC)cc12 (some centres not stated) :: active
Cc1ccc(S(=O)(=O)NC(=O)NC(C)Cc2ccccc2)cc1 (configuration not stated) :: inactive
CCN(CC)C(=O)[C@@]1(c2ccccc2)C[C@@H]1CN :: inactive
OCC1O[C@H](O[C@H]2C(O)C(O)C(O)O[C@@H]2CO)C(O)C(O)C1O (some centres not stated) :: inactive
CNC1CCc2cc(OC)c(OC)c(OC)c2-c2ccc(OC)c(=O)cc21 (configuration not stated) :: inactive

Prompt: Short answer needed: outcome of this test for COc1cccc2c1C(=O)c1c(O)c3c(c(O)c1C2=O)C[C@@](O)(C(=O)CO)C[C@@H]3OC1CC(N)C(O)C(C)O1 (some centres not stated) ?
Response: active

Prompt: Short answer needed: outcome of this test for CC(=O)NC1[C@H](O)C[C@@](O)(C(=O)O)O[C@H]1[C@H](O)[C@H](O)CO (some centres not stated) ?
Response: inactive

Prompt: Short answer needed: outcome of this test for C/C1=C2/[N-]C(C(CC(N)=O)[C@@]2(C)CCC(=O)NCC(C)OP(=O)([O-])O[C@H]2[C@@H](O)[C@@H](n3cnc4cc(C)c(C)cc43)O[C@@H]2CO)[C@]2(C)N=C(/C(C)=C3N=C(/C=C4N=C1C(CCC(N)=O)C\4(C)C)[C@@H](CCC(N)=O)[C@]\3(C)CC(N)=O)[C@@H](CCC(N)=O)[C@]2(C)CC(N)=O.CC(=O)O.[Co] (some centres not stated) ?
Response: inactive

Prompt: Short answer needed: outcome of this test for `CN(C)CC/C=C1\c2ccccc2COc2ccc(CC(=O)O)cc21` ?
Response: inactive

Prompt: Short answer needed: outcome of this test for `C=C1/C(=C\C=C2/CCC[C@]3(C)[C@@H]([C@H](C)/C=C/[C@@H](O)C4CC4)CC[C@@H]23)C[C@@H](O)C[C@@H]1O` ?
Response: inactive

Prompt: Short answer needed: outcome of this test for CCCCN1CC(O)C(O)C(O)C1CO (configuration not stated) ?
Response: inactive

Prompt: Short answer needed: outcome of this test for `O=C1C(I)=CC(=C(c2cc(I)c(O)c(I)c2)c2ccccc2C(=O)O)C=C1I` ?
Response: inactive

----------
Reported activity change, negative = inhibition values are given for each entry in this list.
- assay details: NFAT Signaling Pathway (AID 444);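 also: carbachol stimulus at about its EC50 of 1 µM final; % is scaled to controls: 0 for no effect and ±100 for the full control effect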
- measurement parameters: Jurkat NFAT-bla M1, carbachol, beta-lactamase ratio, 5 h; at 17.2 µM (top of the series) unless noted
Inconclusive results are not listed. Activity calls are given as the source filed them. Calls come from the whole dose curve; as a rule, active = well fitted curve in either direction with a large enough effect (not every such curve was filed as active); inconclusive = small, poorly fitted or top-dose-only effect, or another doubt; inactive = flat fitted curve, though single readings scatter.

Here's what some known entries look like.
CCN(CC)S(=O)(=O)c1cccc2c(N(C)C)cccc12 :: -17.2% (inactive)
COc1cccc(C2C(C#N)=C(N)Oc3cc(C)[nH]c(=O)c32)c1OC (centres undefined) :: 0.0621% (inactive)
O=C(C1CCCCC1)N1CCCn2c1nc1ccccc12 :: -19.9% (inactive)
O=C(CSc1ncnc2nc[nH]c12)c1ccccc1 :: 11.7% [at 7.69 µM] (inactive)

Prompt: # activity change, negative = inhibition lookup, item `c1ccc(OCc2nn3c(-c4ccccn4)nnc3s2)cc1`
Response: -2.83% (inactive)

----------
- Tested on: CP291
- assay details: qHTS profiling for inhibitors of Plasmodium falciparum proliferation (AID 504749); also: nearly all actives have a fitted effect of over 60% in size; also: potency is read from the fitted curve at half-maximal effect
- measurement parameters: P. falciparum in erythrocytes, SYBR Green DNA, 72 h; series mostly up to 28.7 µM
Records with an inconclusive call do not appear. Activity calls are given as the source filed them. Calls follow the shape of the dose curve; as a rule, active = well fitted inhibition curve with a large enough effect; inconclusive = small, poorly fitted or top-dose-only effect; inactive = flat fitted curve, though single readings scatter.
endpoint label: Potency

C[n+]1c2cc(N)ccc2cc2ccc(N)cc21 :: 1200 nM (active)
CCCC(=O)O[C@]1(C(=O)COC(C)=O)CC[C@H]2C3C[C@H](F)C4=CC(=O)C=CC4(C)[C@@]3(F)[C@@H](O)CC21C (stereo not given in full) :: inactive
Cc1ccc(/C=C2/C(=O)C3(C)CCC2C3(C)C)cc1 (stereo not given) :: inactive
CC1(C)C2CC[C@]1(C)[C@@H](O)C2 :: inactive

Prompt: # Potency lookup, item `O=C(O)C[CH2][Ge](=[O])[O][Ge](=[O])[CH2]CC(=O)O`
Response: inactive

----------
- System: HB3
- assay details: qHTS profiling for inhibitors of Plasmodium falciparum proliferation (AID 504749); also: nearly all actives have a fitted effect of over 60% in size
- measurement parameters: P. falciparum in erythrocytes, SYBR Green DNA, 72 h; series mostly up to 28.7 µM
Results filed as inconclusive are left out. Active and inactive are the calls of the source. The call rests on the fitted dose curve; in most records, active means well fitted inhibition curve with a large enough effect; inconclusive means small, poorly fitted or top-dose-only effect; inactive means flat fitted curve, though single readings scatter.
Your answer must be one of the following: Yes (active), No (inactive)

COC(=O)C1C2CC3c4[nH]c5cc(OC)ccc5c4CCN3CC2CC(OC)C1OC (stereo not given) :: No
CN(C)CC/C=C1\c2ccccc2COc2ccc(CC(=O)O)cc21 :: No
C[C@H]1OC(OC2C(O)[C@@H](O)C(OC3C(O)[C@@H](O)C(O)O[C@@H]3CO)O[C@@H]2CO)[C@H](O)C(O)C1N[C@H]1C=C(CO)[C@@H](O)[C@H](O)C1O (stereo not given in full) :: No
Cc1cnc(C(=O)O)cn1 :: No
CC1=C(c2ccc(NN=C(C#N)C#N)cc2)NNC(=O)C1 :: No

Prompt: Short answer needed: outcome of this test for C[C@@H]1C(SC2Cn3cnc[n+]3C2)=C(C(=O)[O-])N2C(=O)[C@H]([C@@H](C)O)[C@@H]12 (stereo not given in full) ?
Response: No

Prompt: Short answer needed: outcome of this test for CC(=O)CC(c1ccccc1)C1C(=O)Oc2ccccc2C1=O (stereo not given) ?
Response: No

Prompt: Short answer needed: outcome of this test for `CC1=C[C@@H](O)CC(C)(C)[C@@H]1/C=C/C(C)=C/C=C/C(C)=C/C=C/C=C(C)/C=C/C=C(C)/C=C/C1=C(C)C[C@H](O)CC1(C)C` ?
Response: Yes

Prompt: Short answer needed: outcome of this test for O=C(O)C(O)c1ccccc1 (stereo not given) ?
Response: No

Prompt: Short answer needed: outcome of this test for Cc1onc(-c2c(F)cccc2Cl)c1C(=O)NC1C(=O)N2C1SC(C)(C)C2C(=O)O (stereo not given) ?
Response: No
